src = ChEMBL document CHEMBL5385875

Reported IC50 at 48 h values follow for various compounds
assay: Cytotoxicity against human MRC5 cells assessed as reduction in cell viability incubated for 48 hrs by MTT assay; assay type: toxicity, cell-based
// note: answer is a bare numeric in µM

Example results:
1. CN1C/C(=C\c2ccc(C(F)(F)F)cc2)C(=O)/C(=C/c2ccc(C(F)(F)F)cc2)C1 ... 4.76
2. COc1cccc(/C=C2\CNC/C(=C\c3cccc(OC)c3)C2=O)c1 ... 9.11
3. O=C1/C(=C/c2cccc(C(F)(F)F)c2)CCC/C1=C\c1cccc(C(F)(F)F)c1 ... 21.9
4. O=C1/C(=C/c2ccc(C(F)(F)F)cc2)CNC/C1=C\c1ccc(C(F)(F)F)cc1 ... 8.65

# input compound: `COc1cccc(/C=C2\CCC/C(=C\c3cccc(OC)c3)C2=O)c1` ; wanted: its IC50 at 48 h
46

====

system: A549; test: Cytotoxicity against human A549 cells assessed as reduction in cell viability incubated for 48 hrs by MTT assay; type: functional, cell-based; settings: A549, 48 h
Metric name: pIC50
Remember the convention: pIC50 equals -log10 of concentration in molar.

Example results:
1. COc1ccccc1/C=C1\CNC/C(=C\c2ccccc2OC)C1=O ... 5.48
2. COc1cccc(/C=C2\CNC/C(=C\c3cccc(OC)c3)C2=O)c1 ... 4.84
3. CN1C/C(=C\c2cccc(C(F)(F)F)c2)C(=O)/C(=C/c2cccc(C(F)(F)F)c2)C1 ... 5.97
4. O=C1/C(=C/c2cccc(C(F)(F)F)c2)CCC/C1=C\c1cccc(C(F)(F)F)c1 ... 5.40
5. COc1ccccc1/C=C1\CN(C)C/C(=C\c2ccccc2OC)C1=O ... 5.17
6. CN1C/C(=C\c2ccc(C(F)(F)F)cc2)C(=O)/C(=C/c2ccc(C(F)(F)F)cc2)C1 ... 5.80

Now for the compound whose pIC50 we want.
Lab note: need pIC50 with A549 for entry `O=C1/C(=C/c2ccccc2)CNC/C1=C\c1ccccc1` , please look it up.
5.13

====

assay: Selectivity index, ratio of IC50 for human MRC5 cells to IC50 for human NCI-H460 cells; type: toxicity; details: MRC5 cells versus NCI-H460 cells, read-out: Ratio IC50
Please enter class 1 where selectivity ratio is greater than or equal to 3, and class 0 where it is lower.

Please review the following examples before continuing.
1) COc1cc(/C=C/C(=O)CC(=O)/C=C/c2ccc(O)c(OC)c2)ccc1O [CURCUMIN] ... class 0
2) CN1C/C(=C\c2cccc(C(F)(F)F)c2)C(=O)/C(=C/c2cccc(C(F)(F)F)c2)C1 ... class 1
3) O=C1/C(=C/c2cccc(C(F)(F)F)c2)CCC/C1=C\c1cccc(C(F)(F)F)c1 ... class 1
4) CC[C@@]1(O)C(=O)OCc2c1cc1n(c2=O)Cc2cc3ccccc3nc2-1 [CAMPTOTHECIN] ... class 1
5) COc1cccc(/C=C2\CCC/C(=C\c3cccc(OC)c3)C2=O)c1 ... class 0

Now for another entry.
// inclusive: selectivity ratio at least 3? input: `COc1ccccc1/C=C1\CN(C)C/C(=C\c2ccccc2OC)C1=O`
class 0

====

test system: NCI-H460; experiment: Cytotoxicity against human NCI-H460 cells assessed as reduction in cell viability incubated for 48 hrs by MTT assay; assay type: functional, cell-based; details: NCI-H460, 48 h
Metric name: IC50
Record the result as number plus unit.

Example results:
1. O=C1/C(=C/c2cccc(C(F)(F)F)c2)CNC/C1=C\c1cccc(C(F)(F)F)c1 ... 440 nM
2. CN1C/C(=C\c2cccc(C(F)(F)F)c2)C(=O)/C(=C/c2cccc(C(F)(F)F)c2)C1 ... 2940 nM

Now for the compound whose IC50 we want.
# input compound: O=c1[nH]cc(F)c(=O)[nH]1 [FLUOROURACIL] ; wanted: its IC50
24800 nM

====

test system: A549; experiment: Cytotoxicity against human A549 cells assessed as reduction in cell viability incubated for 48 hrs by MTT assay; format: functional, cell-based; conditions: A549, 48 h
Reported pIC50 values follow for various molecules
Remember the convention: pIC50 equals -log10 of concentration in molar.

Example results:
1) O=C1/C(=C/c2cccc(C(F)(F)F)c2)CNC/C1=C\c1cccc(C(F)(F)F)c1 ... 5.24
2) COc1cc(/C=C/C(=O)CC(=O)/C=C/c2ccc(O)c(OC)c2)ccc1O ... 4.35
3) CN1C/C(=C\c2ccccc2)C(=O)/C(=C/c2ccccc2)C1 ... 4.95
4) COc1cccc(/C=C2\CN(C)C/C(=C\c3cccc(OC)c3)C2=O)c1 ... 5.93
5) O=C1/C(=C/c2ccc(C(F)(F)F)cc2)CCC/C1=C\c1ccc(C(F)(F)F)cc1 ... 5.53
6) O=C1/C(=C/c2ccccc2)CCC/C1=C\c1ccccc1 ... 4.58
7) O=C1/C(=C/c2ccc(C(F)(F)F)cc2)CNC/C1=C\c1ccc(C(F)(F)F)cc1 ... 5.69
8) COc1cccc(/C=C2\CCC/C(=C\c3cccc(OC)c3)C2=O)c1 ... 4.94

# input molecule: `COc1ccccc1/C=C1\CCC/C(=C\c2ccccc2OC)C1=O` ; wanted: its pIC50
4.18

====

test: Cytotoxicity against human MRC5 cells assessed as reduction in cell viability incubated for 48 hrs by MTT assay; type: toxicity, cell-based
Reported IC50 at 48 h values follow for various compounds
// note: answer is a bare numeric in µM

1) O=C1/C(=C/c2cccc(C(F)(F)F)c2)CNC/C1=C\c1cccc(C(F)(F)F)c1 ... 14.1
2) CN1C/C(=C\c2cccc(C(F)(F)F)c2)C(=O)/C(=C/c2cccc(C(F)(F)F)c2)C1 ... 9.25

Now for the compound whose IC50 at 48 h we want.
# input compound: `COc1ccccc1/C=C1\CNC/C(=C\c2ccccc2OC)C1=O` ; wanted: its IC50 at 48 h
3.67

====

Reported IC50 values follow for various compounds
tested on: HepG2; experiment: Cytotoxicity against human HepG2 cells assessed as reduction in cell viability incubated for 48 hrs by MTT assay; format: functional, cell-based; conditions: HepG2, 48 h
// note: answer is a bare numeric in µM

1. COc1ccccc1/C=C1\CCC/C(=C\c2ccccc2OC)C1=O ... 60.1
2. COc1cccc(/C=C2\CN(C)C/C(=C\c3cccc(OC)c3)C2=O)c1 ... 1.36
3. O=C1/C(=C/c2ccc(C(F)(F)F)cc2)CNC/C1=C\c1ccc(C(F)(F)F)cc1 ... 37.1
4. O=C1/C(=C/c2ccccc2)CNC/C1=C\c1ccccc1 ... 1.38

# input compound: `COc1ccccc1/C=C1\CN(C)C/C(=C\c2ccccc2OC)C1=O` ; wanted: its IC50
10.7

Please do the same for `COc1cccc(/C=C2\CNC/C(=C\c3cccc(OC)c3)C2=O)c1` as well.
5.19

Please do the same for `CN1C/C(=C\c2ccccc2)C(=O)/C(=C/c2ccccc2)C1` as well.
10.6

Please do the same for `COc1ccccc1/C=C1\CNC/C(=C\c2ccccc2OC)C1=O` as well.
1.93

====

assay: Cytotoxicity against human MRC5 cells assessed as reduction in cell viability incubated for 48 hrs by MTT assay; format: toxicity, cell-based
Reported IC50 at 48 h values follow for various compounds
// note: answer is a bare numeric in µM

1) COc1ccccc1/C=C1\CN(C)C/C(=C\c2ccccc2OC)C1=O ... 17
2) CC[C@@]1(O)C(=O)OCc2c1cc1n(c2=O)Cc2cc3ccccc3nc2-1 [CAMPTOTHECIN] ... 9.02
3) O=C1/C(=C/c2ccccc2)CNC/C1=C\c1ccccc1 ... 4.85

# input compound: `O=C1/C(=C/c2ccc(C(F)(F)F)cc2)CCC/C1=C\c1ccc(C(F)(F)F)cc1` ; wanted: its IC50 at 48 h
47.7

Please do the same for COc1cc(/C=C/C(=O)CC(=O)/C=C/c2ccc(O)c(OC)c2)ccc1O [CURCUMIN] as well.
51.2

Please do the same for O=c1[nH]cc(F)c(=O)[nH]1 [FLUOROURACIL] as well.
246

Please do the same for `CN1C/C(=C\c2ccccc2)C(=O)/C(=C/c2ccccc2)C1` as well.
31.3

Please do the same for `COc1cccc(/C=C2\CN(C)C/C(=C\c3cccc(OC)c3)C2=O)c1` as well.
13.4

====

Reported log10 IC50 values follow for various molecules
system: NCI-H460; test: Cytotoxicity against human NCI-H460 cells assessed as reduction in cell viability incubated for 48 hrs by MTT assay; assay type: functional, cell-based; conditions: NCI-H460, 48 h
Field: value | Transform: log10 | Quantity: IC50 | Unit: µM

Example results:
1) CN1C/C(=C\c2ccc(C(F)(F)F)cc2)C(=O)/C(=C/c2ccc(C(F)(F)F)cc2)C1 ... 0.34
2) CC[C@@]1(O)C(=O)OCc2c1cc1n(c2=O)Cc2cc3ccccc3nc2-1 ... -0.10
3) COc1ccccc1/C=C1\CCC/C(=C\c2ccccc2OC)C1=O ... 1.90
4) O=C1/C(=C/c2ccc(C(F)(F)F)cc2)CCC/C1=C\c1ccc(C(F)(F)F)cc1 ... 1.16
5) O=C1/C(=C/c2cccc(C(F)(F)F)c2)CCC/C1=C\c1cccc(C(F)(F)F)c1 ... 0.78

# input molecule: `O=C1/C(=C/c2ccccc2)CNC/C1=C\c1ccccc1` ; wanted: its log10 IC50
0.37
